Molecular target: GPR39 (NIT-1 cells) (Mus musculus, UniProt Q5U431)
Construct: NIT-1 cells endogenously expressing GPR39; endogenous in cells; host or cells: NIT-1 (ATCC CRL-2055)
Sequence (Q5U431 1-456): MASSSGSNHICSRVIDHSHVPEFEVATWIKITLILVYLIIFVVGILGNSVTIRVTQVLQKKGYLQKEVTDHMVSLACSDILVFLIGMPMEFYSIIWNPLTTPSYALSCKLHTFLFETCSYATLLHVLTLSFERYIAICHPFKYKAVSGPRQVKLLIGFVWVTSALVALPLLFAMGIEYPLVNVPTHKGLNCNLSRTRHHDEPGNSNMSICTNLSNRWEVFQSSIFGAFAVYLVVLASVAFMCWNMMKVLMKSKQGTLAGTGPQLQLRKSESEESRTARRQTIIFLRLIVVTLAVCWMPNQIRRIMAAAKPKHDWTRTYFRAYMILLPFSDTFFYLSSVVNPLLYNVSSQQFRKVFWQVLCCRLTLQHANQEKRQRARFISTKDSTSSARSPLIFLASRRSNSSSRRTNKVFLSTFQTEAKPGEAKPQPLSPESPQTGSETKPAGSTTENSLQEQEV
Test: IP1 assay in NIT-1 cells endogenously expressing GPR39
Format: cell-based
Settings: presence of 5 μM Zn^2+; read-out: EC50
Source text: Full length human (AF034633), rat (DM091294) and mouse (BC085285) GPR39 (GeneArt–Life Technologies, Carlsbad, CA) were subcloned into the pIRESneo3 vector (Clontech, Mountain View, CA). […] Individual clones were isolated using flow cytometry with a FACSVantage SE DIVA (Becton Dickinson, Franklin Lakes, NJ) and clones were chosen based on responses to Zn^2+ measured in a cAMP assay (see below). […]
value_type: pEC50
To interpret pEC50, take it as minus log10 of a concentration measured in moles per litre.

[in] Item under review: Cc1nc(-c2nc3c(c(=O)[nH]2)CN(C(=O)c2cccc(Cl)c2F)CC3)cs1 . Reported pEC50?
[out] 6.19

---

Kindly state EC50 for each of the entries shown.
Target: GPR39 (Homo sapiens)
Sequence (O43194 whole entry): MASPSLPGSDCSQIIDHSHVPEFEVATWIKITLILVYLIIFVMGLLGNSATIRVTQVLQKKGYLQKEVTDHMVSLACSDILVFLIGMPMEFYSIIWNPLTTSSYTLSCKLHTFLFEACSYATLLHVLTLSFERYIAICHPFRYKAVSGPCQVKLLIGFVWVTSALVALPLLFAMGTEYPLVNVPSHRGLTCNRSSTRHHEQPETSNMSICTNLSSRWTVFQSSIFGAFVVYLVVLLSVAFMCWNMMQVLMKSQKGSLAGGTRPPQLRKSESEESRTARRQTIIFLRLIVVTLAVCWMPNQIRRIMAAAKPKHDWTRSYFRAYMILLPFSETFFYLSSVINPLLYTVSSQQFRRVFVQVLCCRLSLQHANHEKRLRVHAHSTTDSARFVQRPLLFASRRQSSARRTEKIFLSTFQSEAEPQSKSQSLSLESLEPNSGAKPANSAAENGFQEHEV
Assay: DMR positive allosteric modulator (PAM) experiments, compound and Zn^2+ interdependencies
Format: cell-based
Parameters: Full length human (AF034633), rat (DM091294) and mouse (BC085285) GPR39; expressed in transfected cells
Settings: [Zn2+] μM: 1e-6
Protocol: DMR assays were performed using an Epic instrument (Corning Inc., Corning, NY). 12,000 cells per well were cultured for 24 h in 384-well fibronectin-coated Epic biosensor plates (Corning). On the day of experiment, culture medium was removed and replaced with 30 μl buffer A (HBSS, HEPES 20 mM pH7.4, 1% DMSO, 0.01% BSA) using an EL406 (Bio-Tek). […] A baseline was read for 2 min, and then 15 μl compounds in buffer A were added using a CyBi-Well vario (CyBio) and DMR was detected during 45 min. […]

[in] Item under review: Cc1nc(-c2nc3c(c(=O)[nH]2)CN(C(=O)c2cccc(Cl)c2F)CC3)cs1 . Reported EC50?
[out] > 33 µM

[in] Item under review: N#Cc1ccc(OCCn2ccnc2)c(OCCn2ccnc2)c1 . Reported EC50?
[out] 1.7 µM

[in] Item under review: Cc1nc2c(C(=O)O)cnn2c(O)c1Cc1ccc(Cl)cc1 . Reported EC50?
[out] 8.3 µM
